- Target or system: Human OX2 receptor (Homo sapiens (Human), UniProt O43614)
- Sequence (O43614 whole entry): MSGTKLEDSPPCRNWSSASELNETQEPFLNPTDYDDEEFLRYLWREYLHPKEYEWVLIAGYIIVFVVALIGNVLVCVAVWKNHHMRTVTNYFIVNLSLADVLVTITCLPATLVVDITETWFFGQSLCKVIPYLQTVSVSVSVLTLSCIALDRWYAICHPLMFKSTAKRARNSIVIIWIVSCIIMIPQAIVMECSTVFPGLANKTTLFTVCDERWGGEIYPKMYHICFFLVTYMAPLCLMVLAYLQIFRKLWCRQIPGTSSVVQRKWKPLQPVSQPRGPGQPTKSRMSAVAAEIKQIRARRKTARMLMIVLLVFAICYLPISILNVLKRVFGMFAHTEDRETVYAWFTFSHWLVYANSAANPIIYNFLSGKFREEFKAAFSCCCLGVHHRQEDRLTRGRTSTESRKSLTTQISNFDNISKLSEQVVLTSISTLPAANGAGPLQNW
- Method summary: IPone accumulation assay, CHO cells expressing OX2
- Type: cell-based
- Experimental parameters: antagonism of orexin A (EC80 40 nM)-induced inositol phosphate turnover, read-out: fpKb average OX2 (converted)
The reader will find reported Kb values listed item by item below.

A selection of reference data follows.
CC(=O)Nc1ccc(-c2ncccn2)c(C(=O)N[C@H]2CCC[C@@H]2COc2ccc(F)cc2)c1F = > 2510 nM
CC(=O)Nc1ccc(-n2nccn2)c(C(=O)N(C)[C@H]2CCC[C@@H]2COc2ccc(F)cc2)n1 = > 1000 nM
Nc1ccc(-c2ncc(F)cn2)c(C(=O)N[C@H]2CCC[C@@H]2COc2ccc(F)cc2)n1 = > 1000 nM
[2H]C([2H])(Oc1ccc(F)cc1)[C@H]1CCC[C@@H]1NC(=O)c1nc(NC(C)=O)ccc1-n1nccn1 = > 794 nM
CC(=O)Nc1ccc(-n2nccn2)c(C(=O)N[C@H]2CCC[C@@H]2COc2ccc(Cl)cc2)n1 = > 631 nM
COC(=O)Nc1ccc(-n2nccn2)c(C(=O)N[C@H]2CCC[C@@H]2COc2ccc(F)cc2)n1 = > 794 nM

-- ask Specify Kb for "CC(=O)Nc1cc(C(=O)N[C@H]2CCC[C@@H]2COc2ccc(F)cc2)c(-n2nccn2)cn1" and stop.
-- reply > 63.1 nM

-- ask Specify Kb for "Nc1ccc(-n2nccn2)c(C(=O)N[C@H]2CCC[C@@H]2COc2ccc(F)cc2)n1" and stop.
-- reply > 1260 nM

-- ask Specify Kb for "O=C(N[C@H]1CCC[C@@H]1COc1ccc(F)cc1)c1nc(NC(=O)C2CC2)ccc1-n1nccn1" and stop.
-- reply > 1000 nM

// provenance: patent US12240825B2
